systemUnderTest: P. falciparum apicoplast DNA polymerase (Pf-apPOL) (Plasmodium falciparum)
assayOverview: Fluorescence-based high-throughput DNA polymerase assay (molecular beacon), primary screen and dose-response
Type: biochemical
conditionSet: DRC-2; 180'; concentration 5
propertyName: % inhibition apPOL 180' (%)
Please respond with the number in % and leave the unit unwritten.

Prompt line: For the compound COc1ccc(-c2cc(=O)c3cc(O)ccc3o2)cc1OC [KU0193655] , report % inhibition apPOL 180'.
Response line: 5

Prompt line: For the compound CN(C)C1C(c2ccccc2)=C(c2ccccc2)SC(c2ccccc2)C1[N+](=O)[O-] (centres unmarked) [KU0268387] , report % inhibition apPOL 180'.
Response line: 15

Prompt line: For the compound Oc1cccc2ccc(/C=C/c3ccc4c(c3)OCO4)nc12 [KU0025984] , report % inhibition apPOL 180'.
Response line: 12

Prompt line: For the compound O=C1N/C(=N/c2ccccc2Cl)S/C1=C/c1ccc([N+](=O)[O-])o1 [KU0054524] , report % inhibition apPOL 180'.
Response line: 8

Prompt line: For the compound Cc1cccc2c(C(=O)NC(C)C)cc(N(C)C)nc12 [Molecule 47, CC(NC(=O)c1cc(nc2c1cccc2C)N(C)C)C] , report % inhibition apPOL 180'.
Response line: 6.35

Prompt line: For the compound Cc1cccc(CC(=O)N2CCc3c(nc4cc(-c5ccccc5)[nH]n4c3=O)C2)c1 [Molecule 12] , report % inhibition apPOL 180'.
Response line: 12

Prompt line: For the compound Cc1ccc(C2=N/C(=C\c3ccc(I)o3)C(=O)O2)cc1[N+](=O)[O-] [KU0073890] , report % inhibition apPOL 180'.
Response line: 17

Prompt line: For the compound CSC1=C(C#N)C(=C(C#N)C#N)NC(c2ccccc2)=N1 [Molecule 2, CSc1nc([nH]c(=C(C#N)C#N)c1C#N)c1ccccc1] , report % inhibition apPOL 180'.
Response line: 13

---

systemUnderTest: P. falciparum apicoplast DNA polymerase (Pf-apPOL) (Plasmodium falciparum, UniProt Q8ILY1)
Sequence (Q8ILY1 entry or part of it): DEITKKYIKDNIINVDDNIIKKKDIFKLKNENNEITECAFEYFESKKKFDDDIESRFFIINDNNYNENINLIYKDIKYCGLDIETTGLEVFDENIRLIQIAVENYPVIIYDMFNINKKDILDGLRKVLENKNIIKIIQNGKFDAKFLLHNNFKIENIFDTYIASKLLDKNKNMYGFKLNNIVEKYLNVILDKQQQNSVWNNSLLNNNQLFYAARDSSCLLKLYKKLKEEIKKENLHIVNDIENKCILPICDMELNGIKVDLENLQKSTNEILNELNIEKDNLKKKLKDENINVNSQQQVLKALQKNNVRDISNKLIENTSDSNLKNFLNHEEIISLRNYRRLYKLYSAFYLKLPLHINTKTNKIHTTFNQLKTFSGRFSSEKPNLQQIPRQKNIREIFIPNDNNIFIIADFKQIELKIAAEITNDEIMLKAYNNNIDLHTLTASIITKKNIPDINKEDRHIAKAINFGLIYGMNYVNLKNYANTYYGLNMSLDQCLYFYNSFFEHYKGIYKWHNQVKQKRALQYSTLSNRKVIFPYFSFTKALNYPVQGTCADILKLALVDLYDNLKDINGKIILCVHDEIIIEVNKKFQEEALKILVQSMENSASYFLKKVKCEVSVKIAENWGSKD
assayOverview: Fluorescence-based high-throughput DNA polymerase assay (molecular beacon), primary screen and dose-response;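 as to % inhibition Apol 40': compound concentration given in µM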
Type: biochemical
conditionSet: DRC-2; 40'; concentration 40
From the text: The HT assay employs a molecular beacon, a stem-loop DNA template with a Cy3 dye and the Black Hole Quencher on the 3′ and 5′ ends of the DNA, respectively. Pf-apPOL concentration is based on a calculated absorptivity of ε280 = 56750 M^−1 cm^−1. […] To identify apPOL inhibitors we utilised our previously developed high-throughput DNA polymerase assay. […] The assay accurately recapitulates the kinetic behaviour of apPOL, as measured through more conventional low-throughput gel-based assays. […]
propertyName: % inhibition Apol 40' (%)
Please respond with the number in % and leave the unit unwritten.

Prompt line: For the compound Cc1ccc(NC(=O)C2CCN(C(=O)c3cc4ccsc4[nH]3)CC2)c(Br)c1 [Molecule 14] , report % inhibition Apol 40'.
Response line: 68

Prompt line: For the compound O=C(O)CCS(=O)(=O)c1ccc(-c2ccc(S(=O)(=O)CCC(=O)O)cc2)cc1 [Molecule 32] , report % inhibition Apol 40'.
Response line: 53

Prompt line: For the compound CC(NC(=O)Cc1cc(=O)[nH]c(SCc2cccc(Cl)c2)n1)c1ccccc1 (centres unmarked) [Molecule 67] , report % inhibition Apol 40'.
Response line: 52

Prompt line: For the compound COCCN(CCOC)Cc1c(O)ccc2c1OC(=Cc1cc(Br)ccc1OC)C2=O [KU0198471] , report % inhibition Apol 40'.
Response line: 73

Prompt line: For the compound Cl.NC(CO)C(=O)NNCc1ccc(O)c(O)c1O (centres unmarked) [KU0260493] , report % inhibition Apol 40'.
Response line: 62

Prompt line: For the compound N#CC(=NNc1cc(C(F)(F)F)cc(C(F)(F)F)c1)C(=O)c1ccco1 [KU0264276] , report % inhibition Apol 40'.
Response line: 69

Prompt line: For the compound N#CC(C#N)=C1SCN(c2cccc(Cl)c2)CS1 [Molecule 29, N#CC(=C1SCN(CS1)c1cccc(c1)Cl)C#N] , report % inhibition Apol 40'.
Response line: 73

Prompt line: For the compound O=C(Cn1ccc2c(=O)[nH]ccc21)Nc1ccccc1Cl [Molecule 19, O=C(Cn1ccc2c1cc[nH]c2=O)Nc1ccccc1Cl] , report % inhibition Apol 40'.
Response line: 65

---

systemUnderTest: P. falciparum apicoplast DNA polymerase (Pf-apPOL) (Plasmodium falciparum)
assayOverview: Fluorescence-based high-throughput DNA polymerase assay (molecular beacon), primary screen and dose-response
Format: biochemical
conditionSet: DRC-2; read at 90'; concentration 20
From the text: The HT assay employs a molecular beacon, a stem-loop DNA template with a Cy3 dye and the Black Hole Quencher on the 3′ and 5′ ends of the DNA, respectively. Pf-apPOL concentration is based on a calculated absorptivity of ε280 = 56750 M^−1 cm^−1. […] To identify apPOL inhibitors we utilised our previously developed high-throughput DNA polymerase assay. […] The assay accurately recapitulates the kinetic behaviour of apPOL, as measured through more conventional low-throughput gel-based assays. […]
propertyName: % inhibition ApPOL 90' 20
Field: value (include unit after the number)

Prompt line: For the molecule "Cc1cc2[nH]c(C(=O)Nc3ccc(F)cc3)c(CN3CCOCC3)c2s1" , report % inhibition ApPOL 90' 20.
Response line: 38%

Prompt line: For the molecule "COc1ccc(/C=C/c2cc(C(=O)O)c3ccccc3n2)cc1" , report % inhibition ApPOL 90' 20.
Response line: 46%

Prompt line: For the molecule O=C1CSC2=NC3=C(CCc4ccccc43)C(c3cccs3)N12 (centres unmarked) , report % inhibition ApPOL 90' 20.
Response line: 35%

Prompt line: For the molecule CC(C)CC(C(=O)O)N1C(=O)C2C3C=CC(C2C1=O)C1C(=O)N(C(CC(C)C)C(=O)O)C(=O)C31 (centres unmarked) , report % inhibition ApPOL 90' 20.
Response line: 20%

Prompt line: For the molecule Cc1ccc(N2CCC(NC(=O)Cc3cccs3)C2=O)cc1C (centres unmarked) , report % inhibition ApPOL 90' 20.
Response line: 47%

Prompt line: For the molecule "O=C(CCc1csc(NC(=O)Nc2ccccc2)n1)Nc1nc2ccccc2s1" , report % inhibition ApPOL 90' 20.
Response line: 48%

Prompt line: For the molecule "Cc1nc(C)c2c(n1)N(CC1CCCCC1)C(=O)CC2" , report % inhibition ApPOL 90' 20.
Response line: 42%

Prompt line: For the molecule "CCCc1ccc(Oc2coc3cc(OC)ccc3c2=O)cc1" , report % inhibition ApPOL 90' 20.
Response line: 22%

---

systemUnderTest: P. falciparum apicoplast DNA polymerase (Pf-apPOL) (Plasmodium falciparum, UniProt Q8ILY1)
assayOverview: Fluorescence-based high-throughput DNA polymerase assay (molecular beacon), primary screen and dose-response
Format: biochemical
conditionSet: DRC-1; 10'; concentration 80
# if value of % inhibition Apo pol 10' reaches 80%, tag yes; if it stays below, tag no

Prompt line: Would you say CCN1C(=O)C(=Cc2cccc(OC)c2O)SC1=S [Molecule 78, CCN1C(=S)SC(=Cc2cccc(c2O)OC)C1=O] shows % inhibition Apo pol 10' at minimum 80%?
Response line: no

Prompt line: Would you say O=C(Cn1ccc2c(=O)[nH]ccc21)Nc1cccc(Cl)c1 [Molecule 23, O=C(Cn1ccc2c1cc[nH]c2=O)Nc1cccc(c1)Cl] shows % inhibition Apo pol 10' at minimum 80%?
Response line: no

Prompt line: Would you say Cc1ccc(C)c(CSc2nc(C3CCCCC3)c(C#N)c(=O)[nH]2)c1 [Molecule 6] shows % inhibition Apo pol 10' at minimum 80%?
Response line: yes

Prompt line: Would you say CN(C)C1C(c2ccccc2)=C(c2ccccc2)SC(c2ccccc2)C1[N+](=O)[O-] (centres unmarked) [KU0268387] shows % inhibition Apo pol 10' at minimum 80%?
Response line: no

Prompt line: Would you say COc1ccc(-c2c(C(F)(F)F)nn3c(=O)cc(-c4cccc([N+](=O)[O-])c4)[nH]c23)cc1 [Molecule 16] shows % inhibition Apo pol 10' at minimum 80%?
Response line: yes

Prompt line: Would you say CC(C)(C)c1cc(C(=O)C(C#N)=NNc2cccc(Cl)c2)no1 [Molecule 98] shows % inhibition Apo pol 10' at minimum 80%?
Response line: yes

Prompt line: Would you say Cc1cc(C)c(O)c(/N=C/c2cc([N+](=O)[O-])cc(Br)c2O)c1 [KU0046272] shows % inhibition Apo pol 10' at minimum 80%?
Response line: yes

Prompt line: Would you say O=C(Cc1cc(=O)[nH]c(SCc2ccccc2)n1)Nc1ccc2c(c1)OCO2 [Molecule 46] shows % inhibition Apo pol 10' at minimum 80%?
Response line: yes

Prompt line: Would you say Cc1ccc(NC(=O)C2CCN(C(=O)c3cc4ccsc4[nH]3)CC2)c(Br)c1 [Molecule 14] shows % inhibition Apo pol 10' at minimum 80%?
Response line: yes

Prompt line: Would you say Cc1ccccc1C(=O)N1CCc2c(nc3cc(-c4ccccc4)[nH]n3c2=O)C1 [Molecule 41] shows % inhibition Apo pol 10' at minimum 80%?
Response line: no
